assayed.system: AR / CBP ternary complex (Homo sapiens, UniProt P10275+Q92793)
Sequence (P10275 whole entry): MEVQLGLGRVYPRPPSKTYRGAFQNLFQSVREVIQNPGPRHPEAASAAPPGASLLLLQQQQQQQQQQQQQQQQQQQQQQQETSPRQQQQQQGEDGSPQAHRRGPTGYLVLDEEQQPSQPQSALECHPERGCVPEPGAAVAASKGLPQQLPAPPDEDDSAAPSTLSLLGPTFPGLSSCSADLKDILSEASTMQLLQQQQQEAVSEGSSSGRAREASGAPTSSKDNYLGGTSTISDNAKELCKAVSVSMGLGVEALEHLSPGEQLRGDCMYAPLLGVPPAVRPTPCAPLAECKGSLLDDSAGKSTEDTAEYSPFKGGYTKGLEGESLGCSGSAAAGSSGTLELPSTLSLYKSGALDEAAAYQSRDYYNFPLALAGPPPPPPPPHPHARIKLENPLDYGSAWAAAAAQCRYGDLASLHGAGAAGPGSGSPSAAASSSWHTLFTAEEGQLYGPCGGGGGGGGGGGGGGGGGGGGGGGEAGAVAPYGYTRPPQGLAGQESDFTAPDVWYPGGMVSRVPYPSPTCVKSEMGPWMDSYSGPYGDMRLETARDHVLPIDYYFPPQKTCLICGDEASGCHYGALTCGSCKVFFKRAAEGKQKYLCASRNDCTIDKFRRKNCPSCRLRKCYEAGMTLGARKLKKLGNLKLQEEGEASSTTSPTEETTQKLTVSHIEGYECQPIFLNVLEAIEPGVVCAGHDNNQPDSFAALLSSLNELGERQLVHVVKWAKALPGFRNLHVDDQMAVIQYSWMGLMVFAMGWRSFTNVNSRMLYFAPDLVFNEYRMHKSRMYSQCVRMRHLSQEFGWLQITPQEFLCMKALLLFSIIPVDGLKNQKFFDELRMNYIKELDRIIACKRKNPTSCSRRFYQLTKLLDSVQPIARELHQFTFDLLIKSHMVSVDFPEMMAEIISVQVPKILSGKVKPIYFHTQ
Sequence (Q92793 2-2442): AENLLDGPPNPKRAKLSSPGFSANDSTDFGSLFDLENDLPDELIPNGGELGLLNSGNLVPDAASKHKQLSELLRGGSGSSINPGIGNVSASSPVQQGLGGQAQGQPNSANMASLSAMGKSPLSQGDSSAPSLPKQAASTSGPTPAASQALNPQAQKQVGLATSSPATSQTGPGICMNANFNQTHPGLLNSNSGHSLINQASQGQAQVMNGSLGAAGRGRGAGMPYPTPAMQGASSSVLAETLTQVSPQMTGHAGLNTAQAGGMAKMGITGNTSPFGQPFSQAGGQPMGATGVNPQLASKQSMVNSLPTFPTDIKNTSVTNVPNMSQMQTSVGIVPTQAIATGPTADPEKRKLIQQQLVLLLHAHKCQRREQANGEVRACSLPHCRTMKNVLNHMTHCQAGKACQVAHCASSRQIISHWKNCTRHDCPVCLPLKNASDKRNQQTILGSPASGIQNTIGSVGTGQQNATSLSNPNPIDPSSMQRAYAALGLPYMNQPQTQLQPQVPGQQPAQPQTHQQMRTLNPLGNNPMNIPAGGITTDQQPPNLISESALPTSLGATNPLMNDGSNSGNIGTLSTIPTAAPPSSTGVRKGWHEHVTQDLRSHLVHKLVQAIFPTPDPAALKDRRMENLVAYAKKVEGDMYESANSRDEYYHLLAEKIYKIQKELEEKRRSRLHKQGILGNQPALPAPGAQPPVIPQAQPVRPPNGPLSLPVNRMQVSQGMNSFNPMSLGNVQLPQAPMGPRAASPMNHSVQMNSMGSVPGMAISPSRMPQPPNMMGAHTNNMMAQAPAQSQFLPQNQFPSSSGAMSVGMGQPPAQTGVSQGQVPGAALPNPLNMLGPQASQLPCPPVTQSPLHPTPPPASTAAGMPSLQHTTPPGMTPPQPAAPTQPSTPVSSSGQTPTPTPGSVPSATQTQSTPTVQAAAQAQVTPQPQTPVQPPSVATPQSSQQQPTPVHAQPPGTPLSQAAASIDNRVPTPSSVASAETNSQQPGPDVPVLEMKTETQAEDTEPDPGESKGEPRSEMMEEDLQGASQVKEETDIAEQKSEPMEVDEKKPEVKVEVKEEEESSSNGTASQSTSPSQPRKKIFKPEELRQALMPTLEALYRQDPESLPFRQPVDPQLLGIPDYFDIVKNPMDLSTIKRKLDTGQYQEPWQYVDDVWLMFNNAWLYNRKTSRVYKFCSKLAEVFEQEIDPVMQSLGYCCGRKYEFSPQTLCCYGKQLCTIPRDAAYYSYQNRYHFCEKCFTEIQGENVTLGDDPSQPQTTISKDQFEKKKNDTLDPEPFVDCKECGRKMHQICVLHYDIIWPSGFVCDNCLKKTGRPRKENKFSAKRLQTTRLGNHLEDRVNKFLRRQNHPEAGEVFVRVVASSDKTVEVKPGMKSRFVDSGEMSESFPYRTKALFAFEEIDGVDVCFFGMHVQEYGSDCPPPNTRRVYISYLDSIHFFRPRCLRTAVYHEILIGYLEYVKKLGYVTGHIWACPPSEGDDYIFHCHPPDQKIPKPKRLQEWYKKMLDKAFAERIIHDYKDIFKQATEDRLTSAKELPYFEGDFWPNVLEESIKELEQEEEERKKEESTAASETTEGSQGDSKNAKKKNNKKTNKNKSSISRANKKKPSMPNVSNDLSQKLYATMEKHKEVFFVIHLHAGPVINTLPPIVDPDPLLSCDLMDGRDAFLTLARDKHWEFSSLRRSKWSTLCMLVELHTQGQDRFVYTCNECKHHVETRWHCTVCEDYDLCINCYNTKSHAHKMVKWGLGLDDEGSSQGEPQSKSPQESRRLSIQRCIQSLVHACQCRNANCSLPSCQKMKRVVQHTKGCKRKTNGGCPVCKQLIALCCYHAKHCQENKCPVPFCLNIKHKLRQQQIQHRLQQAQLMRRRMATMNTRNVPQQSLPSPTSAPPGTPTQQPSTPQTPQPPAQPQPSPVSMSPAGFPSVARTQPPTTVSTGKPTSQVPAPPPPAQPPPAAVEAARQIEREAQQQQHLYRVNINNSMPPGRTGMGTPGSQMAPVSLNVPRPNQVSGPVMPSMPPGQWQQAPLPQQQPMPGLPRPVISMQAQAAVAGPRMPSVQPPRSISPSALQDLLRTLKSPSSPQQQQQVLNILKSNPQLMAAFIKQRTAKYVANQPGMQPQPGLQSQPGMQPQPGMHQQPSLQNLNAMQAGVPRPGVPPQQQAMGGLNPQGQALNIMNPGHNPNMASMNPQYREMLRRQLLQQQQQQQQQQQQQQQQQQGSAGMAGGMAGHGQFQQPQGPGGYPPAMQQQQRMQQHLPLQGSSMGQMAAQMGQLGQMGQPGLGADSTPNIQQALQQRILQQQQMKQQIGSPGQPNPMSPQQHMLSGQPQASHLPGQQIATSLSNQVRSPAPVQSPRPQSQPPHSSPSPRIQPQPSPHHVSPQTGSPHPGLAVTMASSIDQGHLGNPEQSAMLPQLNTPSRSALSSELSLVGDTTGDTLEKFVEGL
assay.notes: Ternary complex formation assay (sandwich ELISA, AR capture, CBP antibody detection) in VCaP cell lysates
Format: cell-based
assay.setup: treated 1.5 hours, rabbit CBP or p300 antibody detection, average, read-out: Average Ternary Complex
Method: […] Incubate for 1 hour at room temperature. […] Immediately read fluorescence on BMG ClarioStar (ex: 570/em 585), and repeat the read in 5 minutes and 15 minutes.
# EC50 per entry
observation.type: EC50

compound=Cn1cc(-c2cc3cccc(-c4cc(C5CCN(CC6CCN(c7ccc(C(=O)N[C@H]8CC[C@H](Oc9ccc(C#N)c(Cl)c9)CC8)nn7)CC6)CC5)c5c(c4)n(C)c(=O)n5C)c3cn2)cn1 observation_type=EC50 value_reported="< 1 nM"
compound=CC(=O)N1CCc2c(c(N3CCCc4cc(-c5cnn(C)c5)c(C(F)F)cc43)nn2[C@H]2CC[C@]3(CCN(c4ccc(C(=O)N[C@H]5CC[C@H](Oc6ccc(C#N)c(Cl)c6)CC5)nn4)C3)CC2)C1 observation_type=EC50 value_reported="> 100 nM"
compound="CC(=O)N1CCc2c(c(N3CCCc4ccc(C(F)F)cc43)nn2C2CC3(C2)CN(CC2CC4(C2)CN(c2ccc(C(=O)N[C@H]5CC[C@H](Oc6ccc(C#N)c(Cl)c6)CC5)nn2)C4)C3)C1 (some centres unmarked)" observation_type=EC50 value_reported="1 to 10 nM"
compound="CC(=O)N1CCc2c(c(N3CCCc4cc(-c5ccn(C)n5)c(C(F)F)cc43)nn2C2CCC3(CC2)CC(Oc2ccc(C(=O)N[C@H]4CC[C@H](Oc5ccc(C#N)c(Cl)c5)CC4)nn2)C3)C1 (some centres unmarked)" observation_type=EC50 value_reported="< 1 nM"
compound=CC(=O)N1CCc2c(c(N3CCCc4cc(-c5cnn(C)c5)c(C(F)F)cc43)nn2C2CCN([C@@H]3CCN(c4ccc(C(=O)N[C@H]5CC[C@H](Oc6ccc(C#N)c(Cl)c6)CC5)nn4)C[C@@H]3C)CC2)C1 observation_type=EC50 value_reported="< 1 nM"

====

assayed.system: AR / CBP ternary complex (Homo sapiens, UniProt P10275+Q92793)
assay.notes: Ternary complex formation assay (sandwich ELISA, AR capture, CBP antibody detection) in VCaP cell lysates
Format: cell-based
assay.setup: treated 1.5 hours, rabbit CBP or p300 antibody detection, average, read-out: Average Ternary Complex
observation.type: EC50

molecule="CC(=O)N1CCc2c(c(N3CCCc4cc(-c5cscn5)c(C(F)F)cc43)nn2C2CCN([C@H]3CCCN(c4ccc(C(=O)N[C@H]5CC[C@H](Oc6ccc(C#N)c(Cl)c6)CC5)nn4)C3)CC2)C1 [Compound 260]" value_reported="1 to 10 nM"
molecule="CC(=O)N1CCc2c(c(-c3cccc4cc(-c5cnn(CCOC6CC7(C6)CN(c6ccc(C(=O)N[C@H]8CC[C@H](Oc9ccc(C#N)c(Cl)c9)CC8)nn6)C7)c5)ncc34)nn2C)C1 [Compound 64]" value_reported="1 to 10 nM"
molecule="CC(=O)N1CCc2c(c(-c3cccc4cc(-c5ccc(CCC6CCN(c7ccc(C(=O)N[C@H]8CC[C@H](Oc9ccc(C#N)c(Cl)c9)CC8)cn7)CC6)cc5)ncc34)nn2C2CCOCC2)C1 [Compound 166]" value_reported="< 1 nM"
molecule="CC(=O)N1CCc2c(c(-c3cccc4cc(-c5ccc(COCC6CCN(c7ccc(C(=O)N[C@H]8CC[C@H](Oc9ccc(C#N)c(Cl)c9)CC8)nn7)CC6)nc5)ncc34)nn2C)C1 [Compound 21]" value_reported="< 1 nM"
molecule="CC(=O)N1CCc2c(c(N3CCCc4cc(-c5cnn(C)c5)c(C(F)F)cc43)nn2C2CCN(C3CC4(CC(Oc5ccc(C(=O)N[C@H]6CC[C@H](Oc7ccc(C#N)c(Cl)c7)CC6)nn5)C4)C3)CC2)C1 (some centres unmarked) [Compound 247]" value_reported="< 1 nM"
